# assay-protocol: Water loss as a function of temperature by TG/DTA (loss on drying, thermal transitions)
# Format: physicochemical
# measurement-context: total water loss by thermogravimetry, rt-295° C., 10°/min
Hi there, I'd appreciate the recorded Loss On Drying (LOD) (%) for every entry that follows.

# query: Loss On Drying (LOD) (%) of entry O=C([O-])C[C@H]1CC[C@H](c2ccc(-c3ccc(Nc4ccc(C(F)(F)F)nc4)cn3)cc2)CC1.[Na+] [Modification A, reference compound]
9.1%

# query: Loss On Drying (LOD) (%) of entry O=C([O-])C[C@H]1CC[C@H](c2ccc(-c3ccc(Nc4ccc(C(F)(F)F)nc4)cn3)cc2)CC1.[Na+] [Modification O]
1.2%

# query: Loss On Drying (LOD) (%) of entry O=C([O-])C[C@H]1CC[C@H](c2ccc(-c3ccc(Nc4ccc(C(F)(F)F)nc4)cn3)cc2)CC1.[Na+] [Modification C]
2.8%

# query: Loss On Drying (LOD) (%) of entry O=C([O-])C[C@H]1CC[C@H](c2ccc(-c3ccc(Nc4ccc(C(F)(F)F)nc4)cn3)cc2)CC1.[Na+] [Modification N]
0.3%
